- Measurement Conditions: in ethanol, 288.15 K
Recorded Metric: solubility (mole fraction)
Numbers only.

# input Any idea what its solubility (mole fraction) is? The compound is Cc1ncc(CO)c(CO)c1O.Cl
# output 0.000557

###

- Measurement Conditions: in water, 278.15 K
Recorded Metric: solubility (mole fraction)
Numbers only.

# input Any idea what its solubility (mole fraction) is? The compound is Cc1ncc(CO)c(CO)c1O.Cl
# output 0.0105

###

- Measurement Conditions: in ethanol, 298.15 K
Recorded Metric: solubility (mole fraction)
Numbers only.

# input Any idea what its solubility (mole fraction) is? The compound is Cc1ncc(CO)c(CO)c1O.Cl
# output 0.000801

###

- Measurement Conditions: in water, 308.15 K
Recorded Metric: solubility (mole fraction)
Numbers only.

# input Any idea what its solubility (mole fraction) is? The molecule is Cc1ncc(CO)c(CO)c1O.Cl
# output 0.025

###

- Measurement Conditions: in methanol, 293.15 K
Recorded Metric: solubility (mole fraction)
Give bare numbers.

# input Any idea what its solubility (mole fraction) is? The molecule is Cc1ncc(CO)c(CO)c1O.Cl
# output 0.00329

###

- Measurement Conditions: in water, 313.15 K
Recorded Metric: solubility (mole fraction)
Give bare numbers.

# input Any idea what its solubility (mole fraction) is? The compound is Cc1ncc(CO)c(CO)c1O.Cl
# output 0.0286

###

- Measurement Conditions: in methanol, 308.15 K
Recorded Metric: solubility (mole fraction)
Give bare numbers.

# input Any idea what its solubility (mole fraction) is? The molecule is Cc1ncc(CO)c(CO)c1O.Cl
# output 0.00486

###

- Measurement Conditions: in ethanol, 283.15 K
Recorded Metric: solubility (mole fraction)
One number for each entry.

# input Any idea what its solubility (mole fraction) is? The compound is Cc1ncc(CO)c(CO)c1O.Cl
# output 0.000484

###

- Measurement Conditions: in methanol, 283.15 K
Recorded Metric: solubility (mole fraction)
Numbers only.

# input Any idea what its solubility (mole fraction) is? The compound is Cc1ncc(CO)c(CO)c1O.Cl
# output 0.00253

###

- Measurement Conditions: in methanol, 303.15 K
Recorded Metric: solubility (mole fraction)
Numbers only.

# input Any idea what its solubility (mole fraction) is? The compound is Cc1ncc(CO)c(CO)c1O.Cl
# output 0.00425

###

- Measurement Conditions: in ethanol, 308.15 K
Recorded Metric: solubility (mole fraction)

# input Any idea what its solubility (mole fraction) is? The molecule is Cc1ncc(CO)c(CO)c1O.Cl
# output 0.00118

###

- Measurement Conditions: in methanol, 278.15 K
Recorded Metric: solubility (mole fraction)

# input Any idea what its solubility (mole fraction) is? The molecule is Cc1ncc(CO)c(CO)c1O.Cl
# output 0.00221

###

- Measurement Conditions: in water, 288.15 K
Recorded Metric: solubility (mole fraction)
Give bare numbers.

# input Any idea what its solubility (mole fraction) is? The compound is Cc1ncc(CO)c(CO)c1O.Cl
# output 0.0144

###

- Measurement Conditions: in methanol, 298.15 K
Recorded Metric: solubility (mole fraction)
One number for each entry.

# input Any idea what its solubility (mole fraction) is? The compound is Cc1ncc(CO)c(CO)c1O.Cl
# output 0.00373

###

- Measurement Conditions: in water, 298.15 K
Recorded Metric: solubility (mole fraction)
Numbers only.

# input Any idea what its solubility (mole fraction) is? The compound is Cc1ncc(CO)c(CO)c1O.Cl
# output 0.0191
